// reported ASP+ inhibition [%] per item
Biological target: OCT3 (Homo sapiens)
Construct: expressed in transfected cells; host or cells: HEK293
Sequence (O75751 whole entry): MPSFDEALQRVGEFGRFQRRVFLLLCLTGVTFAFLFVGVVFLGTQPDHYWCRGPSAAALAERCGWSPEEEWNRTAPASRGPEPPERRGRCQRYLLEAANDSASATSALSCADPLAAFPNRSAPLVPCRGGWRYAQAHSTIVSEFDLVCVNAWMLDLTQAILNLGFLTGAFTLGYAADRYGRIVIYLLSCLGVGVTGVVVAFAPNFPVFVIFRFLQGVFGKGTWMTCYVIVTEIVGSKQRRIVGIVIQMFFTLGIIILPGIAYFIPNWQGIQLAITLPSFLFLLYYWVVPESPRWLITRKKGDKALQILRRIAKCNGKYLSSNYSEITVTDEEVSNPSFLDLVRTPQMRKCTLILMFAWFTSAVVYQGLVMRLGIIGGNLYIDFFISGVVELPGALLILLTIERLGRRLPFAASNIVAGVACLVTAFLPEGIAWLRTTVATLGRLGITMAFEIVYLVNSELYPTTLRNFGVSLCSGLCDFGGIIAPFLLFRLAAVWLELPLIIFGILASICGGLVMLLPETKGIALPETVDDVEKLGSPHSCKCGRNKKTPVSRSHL
Experiment: Inhibition of model substrate uptake in OCT3-overexpressing HEK293 cells
Format: cell-based
Settings: OCT3; 20 μM inhibitor, 2 μM ASP+, 5 min
reportedProperty: ASP+ inhibition [%] (%)

[
  {
    "compound": "CNCC[C@H](Oc1ccccc1C)c1ccccc1 [(S)-Tomoxetine]",
    "valueUnit": "%",
    "val": -8.3
  },
  {
    "compound": "CN(C)CCO[C@@](C)(c1ccccc1)c1ccccn1 [(S)-Doxylamine]",
    "valueUnit": "%",
    "val": 7.4
  },
  {
    "compound": "CC(C)C[C@H](N(C)C)C1(c2ccc(Cl)cc2)CCC1 [(S)-Sibutramine]",
    "valueUnit": "%",
    "val": -0.8
  },
  {
    "compound": "CC(C)(C)NC[C@H](O)c1ccc(O)c(CO)c1 [(R)-Salbutamol]",
    "valueUnit": "%",
    "val": 10.3
  },
  {
    "compound": "C#CCN(C)[C@@H](C)Cc1ccccc1 [(S)-Deprenyl]",
    "valueUnit": "%",
    "val": 9.6
  },
  {
    "compound": "NC[C@H](O)c1ccc(O)c(O)c1 [(R)-Norepinephrine]",
    "valueUnit": "%",
    "val": 8.4
  },
  {
    "compound": "C1CCN2C[C@@H]3C[C@@H](CN4CCCC[C@@H]34)[C@H]2C1 [(-)-Sparteine]",
    "valueUnit": "%",
    "val": 0.4
  },
  {
    "compound": "CCCNC[C@H](O)COc1ccccc1C(=O)CCc1ccccc1 [(S)-Propafenone]",
    "valueUnit": "%",
    "val": 23.8
  },
  {
    "compound": "CCC(CO)NCCNC(CC)CO [(R,S)-Ethambutol]",
    "valueUnit": "%",
    "val": 2.6
  },
  {
    "compound": "CCN(CC)CC#CCOC(=O)[C@@](O)(c1ccccc1)C1CCCCC1 [(S)-Oxybutynine]",
    "valueUnit": "%",
    "val": 40.5
  },
  {
    "compound": "CNCC[C@@H](Oc1ccccc1C)c1ccccc1 [(R)-Tomoxetine]",
    "valueUnit": "%",
    "val": 1.1
  },
  {
    "compound": "CCC(CO)NCCNC(CC)CO [(R,R)-Ethambutol]",
    "valueUnit": "%",
    "val": 9.1
  },
  {
    "compound": "NC[C@@H](O)c1ccc(O)c(O)c1 [(S)-Norepinephrine]",
    "valueUnit": "%",
    "val": -3.5
  },
  {
    "compound": "CC(C)NC[C@H](O)COc1cccc2ccccc12 [(S)-Propranolol]",
    "valueUnit": "%",
    "val": -2.9
  },
  {
    "compound": "O=C(OC1C[N+]2(CCCOc3ccccc3)CCC1CC2)C(O)(c1cccs1)c1cccs1 [(S)-Aclidinium]",
    "valueUnit": "%",
    "val": 37.7
  },
  {
    "compound": "C#CCN[C@@H]1CCc2ccccc21 [(R)-Rasagiline]",
    "valueUnit": "%",
    "val": -11.8
  },
  {
    "compound": "Cc1ccc(O)c([C@H](CCN(C(C)C)C(C)C)c2ccccc2)c1 [(R)-Tolterodine]",
    "valueUnit": "%",
    "val": 94
  },
  {
    "compound": "CCC(CO)NCCNC(CC)CO [(S,S)-Ethambutol]",
    "valueUnit": "%",
    "val": 3.7
  },
  {
    "compound": "C#CCN[C@H]1CCc2ccccc21 [(S)-Rasagiline]",
    "valueUnit": "%",
    "val": -7.7
  },
  {
    "compound": "N[C@H]1CONC1=O [(S)-Cycloserine]",
    "valueUnit": "%",
    "val": 19.3
  },
  {
    "compound": "OC[C@@H](O)CN1CCN(c2ccccc2)CC1 [(S)-Dropropizine]",
    "valueUnit": "%",
    "val": 29.1
  }
]
